EC50 reference
molecular target: Beta-2 adrenergic receptor (Homo sapiens); test: ADRB2 activation measured by internalization – cell-based, FAP fluorogen, flow cytometry, cherry pick 1, dose response (AID 588763); type: functional
Sequence (P07550 whole entry): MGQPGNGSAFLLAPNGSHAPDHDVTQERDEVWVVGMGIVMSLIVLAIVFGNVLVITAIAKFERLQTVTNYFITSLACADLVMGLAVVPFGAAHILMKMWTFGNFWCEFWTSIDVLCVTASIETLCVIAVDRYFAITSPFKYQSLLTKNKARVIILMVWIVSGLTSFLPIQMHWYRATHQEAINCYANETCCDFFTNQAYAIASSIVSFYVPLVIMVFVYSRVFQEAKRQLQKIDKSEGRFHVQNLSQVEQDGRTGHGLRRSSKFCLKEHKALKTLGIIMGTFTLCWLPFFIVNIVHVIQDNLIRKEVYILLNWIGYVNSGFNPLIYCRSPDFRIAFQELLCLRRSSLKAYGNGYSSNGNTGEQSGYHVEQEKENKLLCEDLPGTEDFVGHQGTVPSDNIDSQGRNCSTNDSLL
Active and inactive are the calls of the source. No rule for the calls is given here.

Use the examples below as a reference point.
[[record]]
molecule = "CC1(C)Cc2c(c(-c3ccco3)nc3sc4c(NCC5CCCO5)ncnc4c23)CO1 (stereo not given)"
reported_value = "91.9 nM (active)"

[[record]]
molecule = "Cc1ccc(OCc2cc(C(=O)N(C)Cc3cnn(-c4ccccc4C)c3)no2)cn1"
reported_value = "305 nM (active)"

[[record]]
molecule = "CCCc1ccc(OCc2nc(-c3ccc(NC(=O)c4cccs4)cc3)no2)cc1"
reported_value = "539 nM (active)"


Q) State the recorded EC50 for this entry: O=C(COC(=O)c1ccccc1C(=O)c1ccc(Cl)c([N+](=O)[O-])c1)NC1CC1
A) 13300 nM (inactive)

Q) Given the entry CCC(=O)N1CCc2cc(Br)cc(S(=O)(=O)N(C)c3ccc(OC)cc3)c21 , report its measured EC50.
A) 27.1 nM (active)

Hello, the source for this data is ChEMBL document CHEMBL1201862, in case you need it.
